B1: FBXO3 (parent)
chain: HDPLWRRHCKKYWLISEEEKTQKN

Variants of: B1
Test protocol: protein stability index of a GFP-peptide fusion (GPS, HEK-293T) (PSI 1-6); higher = more stable;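 note: lentivirally expressed fusions sorted by FACS into six bins by GFP to DsRed ratio, PSI derived from sequencing read proportions per bin multiplied by bin number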
Applied conditions: c terminus: a fixed tail appended
Readout type: protein stability index
// no unit, no text: just the number

Given the variant HFPLWRRHCKKYWLISEEEKTQKN [D2F] , what is its reported protein stability index?
2.33

Same thing, different variant: HDPLWRRHCKKYWLIEEEEKTQKN [S16E]
3.8

Same thing, different variant: HDPLWRRHCKKYWLISEEEKTQKS [N24S]
2.91

Same thing, different variant: HDPLWRRQCKKYWLISEEEKTQKN [H8Q]
3.72

Same thing, different variant: HDPLWRRHCKKYWLIHEEEKTQKN [S16H]
3.09

Same thing, different variant: HDPLWRRHCKPYWLISEEEKTQKN [K11P]
2.67

Same thing, different variant: HDPLWRRHCKKYWLISEYEKTQKN [E18Y]
2.31

Same thing, different variant: HDPLWRRHCKNYWLISEEEKTQKN [K11N]
2.65

Same thing, different variant: HDPLWRRHCKKYWLISEWEKTQKN [E18W]
2.38

Same thing, different variant: HDPLWRRHCKKYWDISEEEKTQKN [L14D]
3.98

Same thing, different variant: HDPLWRRHCKKYWLISCEEKTQKN [E17C]
2.64

Same thing, different variant: HDWLWRRHCKKYWLISEEEKTQKN [P3W]
2.44

Same thing, different variant: HDPLWRRHCKRYWLISEEEKTQKN [K11R]
3.35

Same thing, different variant: HDPLWRRHCKKYQLISEEEKTQKN [W13Q]
4.28

Same thing, different variant: HDELWRRHCKKYWLISEEEKTQKN [P3E]
3.45

Same thing, different variant: HDPLWRRHCKKYWLISEEEKRQKN [T21R]
2.83

Same thing, different variant: HDPLWRRHCKKYWLISEEEKGQKN [T21G]
2.91

Same thing, different variant: HDPLWRRHCKKYWLISEEEVTQKN [K20V]
3.29

Same thing, different variant: HDPLWRRHCKKSWLISEEEKTQKN [Y12S]
3.91

Same thing, different variant: HDPLWRRHCKKYWLISEEEKTQCN [K23C]
3.09

Same thing, different variant: HDPLDRRHCKKYWLISEEEKTQKN [W5D]
4.18

Same thing, different variant: HDPLWRRGCKKYWLISEEEKTQKN [H8G]
3.31

Same thing, different variant: HDPEWRRHCKKYWLISEEEKTQKN [L4E]
2.9

Same thing, different variant: HDPLWRRHCKKYWLISPEEKTQKN [E17P]
3.52

Same thing, different variant: HDPLWRRHCKKYWLSSEEEKTQKN [I15S]
3.62

Same thing, different variant: HDPLWRRHCKKYTLISEEEKTQKN [W13T]
4.22

Same thing, different variant: HDPLCRRHCKKYWLISEEEKTQKN [W5C]
3.77

Same thing, different variant: HDPLWRRHCKKYDLISEEEKTQKN [W13D]
4.38

Same thing, different variant: HDPLWRKHCKKYWLISEEEKTQKN [R7K]
3.22

Same thing, different variant: HDPLWRRHCSKYWLISEEEKTQKN [K10S]
3.32

Same thing, different variant: HDPLWTRHCKKYWLISEEEKTQKN [R6T]
3.43

Same thing, different variant: HDPLWRRHCKKYELISEEEKTQKN [W13E]
4.52

Same thing, different variant: HDPLWRRHCKKYWLISEEETTQKN [K20T]
2.89

Same thing, different variant: HDPLWRRHCKKYWLIAEEEKTQKN [S16A]
3.21

Same thing, different variant: HDPVWRRHCKKYWLISEEEKTQKN [L4V]
3.32

Same thing, different variant: HDPLTRRHCKKYWLISEEEKTQKN [W5T]
4.76

Same thing, different variant: HDPLWRRHCKKYWLILEEEKTQKN [S16L]
2.72

Same thing, different variant: HDPLWRRHCEKYWLISEEEKTQKN [K10E]
3.81

Same thing, different variant: MDPLWRRHCKKYWLISEEEKTQKN [H1M]
3.32

Same thing, different variant: HDPLWRRPCKKYWLISEEEKTQKN [H8P]
3.4

Same thing, different variant: HDPLWRRHCKKYWLISEEEKVQKN [T21V]
2.99

Same thing, different variant: HDPLWRIHCKKYWLISEEEKTQKN [R7I]
3.14

Same thing, different variant: HDPLWRRHCKKYWLISEEEKTQQN [K23Q]
3.27

Same thing, different variant: HDPLWERHCKKYWLISEEEKTQKN [R6E]
4.24

Same thing, different variant: HDPLWRRHCKKYWLISEETKTQKN [E19T]
2.71

Same thing, different variant: HDPLWRVHCKKYWLISEEEKTQKN [R7V]
2.71
